The reported measurements were obtained from PubChem BioAssay AID1963847.

Each record here notes measured IC50.
# Test system: 415267-285-R-J2-PDC complex spheroid viability
# test.method.notes: Anticancer human tumor 415267-285-R-J2-PDC patient-derived breast carcinoma cell line growth inhibition [POLQ]
# measurement.conditions: curve of first compound; second compound 0.316 µM
experimental.readout: IC50

INSERT INTO assay_data (molecule, tested_target, value) VALUES
  ('CNCc1ccc(-c2[nH]c3cc(F)cc4c3c2CCNC4=O)cc1 + Nc1ccc(C#CCN(C(=O)Cc2ncc(C(F)(F)F)cc2C(F)(F)F)c2ccc(F)cc2)nn1', '415267-285-R-J2-PDC complex spheroid viability', '> 10000 nM'),
  ('O=c1[nH]cc(F)c(=O)[nH]1 + Cc1cccc(N(C)C(=O)C2C(O)CCN2c2nc(C)cc(C(F)(F)F)c2C#N)c1', '415267-285-R-J2-PDC complex spheroid viability', '203 nM'),
  ('COc1cc(C2c3cc4c(cc3C(OC3OC5COC(C)OC5C(O)C3O)C3COC(=O)C23)OCO4)cc(OC)c1O (stereo unspecified) + Nc1ccc(C#CCN(C(=O)Cc2ncc(C(F)(F)F)cc2C(F)(F)F)c2ccc(F)cc2)nn1', '415267-285-R-J2-PDC complex spheroid viability', '194 nM'),
  ('CC(=O)O[C@H]1C(=O)[C@@]2(C)[C@H]([C@H](OC(=O)c3ccccc3)[C@]3(O)C[C@H](OC(=O)[C@H](O)[C@@H](NC(=O)c4ccccc4)c4ccccc4)C(C)=C1C3(C)C)[C@]1(OC(C)=O)CO[C@@H]1C[C@@H]2O + Cc1cccc(N(C)C(=O)C2C(O)CCN2c2nc(C)cc(C(F)(F)F)c2C#N)c1', '415267-285-R-J2-PDC complex spheroid viability', '< 9.49 nM'),
  ('CC1COCCN1c1cc(-c2ccnn2C)c2ccnc(-c3ccn[nH]3)c2n1 (stereo unspecified) + Nc1ccc(C#CCN(C(=O)Cc2ncc(C(F)(F)F)cc2C(F)(F)F)c2ccc(F)cc2)nn1', '415267-285-R-J2-PDC complex spheroid viability', '40 nM'),
  ('COc1ccc([C@@H](O)c2cc(-c3ncnc4cc(N5CCOCC5)ccc34)c(F)cc2Cl)nn1 + Cc1cccc(N(C)C(=O)C2C(O)CCN2c2nc(C)cc(C(F)(F)F)c2C#N)c1', '415267-285-R-J2-PDC complex spheroid viability', '7440 nM'),
  ('C#Cc1c(F)ccc2cc(O)cc(-c3ncc4c(N5CC6CCC(C5)N6)nc(OCC56CCCN5CC(F)C6)nc4c3F)c12 (stereo unspecified) + Cc1cccc(N(C)C(=O)C2C(O)CCN2c2nc(C)cc(C(F)(F)F)c2C#N)c1', '415267-285-R-J2-PDC complex spheroid viability', '> 10000 nM'),
  ('O=c1[nH]cc(F)c(=O)[nH]1 + COC1C(OC(N)=O)C(O)C(Oc2ccc3c(O)c(NC(=O)c4ccc(O)c(CC=C(C)C)c4)c(=O)oc3c2C)OC1(C)C', '415267-285-R-J2-PDC complex spheroid viability', '162 nM'),
  ('COc1cc2cc(C(=O)CCC(=O)O)sc2cc1OC + Cc1cccc(N(C)C(=O)C2C(O)CCN2c2nc(C)cc(C(F)(F)F)c2C#N)c1', '415267-285-R-J2-PDC complex spheroid viability', '> 10000 nM'),
  ('COc1ccc([C@@H](O)c2cc(-c3ncnc4cc(N5CCOCC5)ccc34)c(F)cc2Cl)nn1 + Nc1ccc(C#CCN(C(=O)Cc2ncc(C(F)(F)F)cc2C(F)(F)F)c2ccc(F)cc2)nn1', '415267-285-R-J2-PDC complex spheroid viability', '> 10000 nM'),
  ('O=c1[nH]cc(F)c(=O)[nH]1 + Nc1ccc(C#CCN(C(=O)Cc2ncc(C(F)(F)F)cc2C(F)(F)F)c2ccc(F)cc2)nn1', '415267-285-R-J2-PDC complex spheroid viability', '283 nM'),
  ('O=C(Nc1ccc(O)c(NS(=O)(=O)c2ccc(F)cc2)c1)c1ccc(-c2ccccc2)cc1 + Cc1cccc(N(C)C(=O)C2C(O)CCN2c2nc(C)cc(C(F)(F)F)c2C#N)c1', '415267-285-R-J2-PDC complex spheroid viability', '> 10000 nM'),
  ('CC1COCCN1c1cc(-c2ccnn2C)c2ccnc(-c3ccn[nH]3)c2n1 (stereo unspecified) + Cc1cccc(N(C)C(=O)C2C(O)CCN2c2nc(C)cc(C(F)(F)F)c2C#N)c1', '415267-285-R-J2-PDC complex spheroid viability', '< 31.6 nM'),
  ('COc1cc2cc(C(=O)CCC(=O)O)sc2cc1OC + Nc1ccc(C#CCN(C(=O)Cc2ncc(C(F)(F)F)cc2C(F)(F)F)c2ccc(F)cc2)nn1', '415267-285-R-J2-PDC complex spheroid viability', '> 10000 nM'),
  ('CCc1c2c(nc3ccc(O)cc13)-c1cc3c(c(=O)n1C2)COC(=O)[C@]3(O)CC + COC1C(OC(N)=O)C(O)C(Oc2ccc3c(O)c(NC(=O)c4ccc(O)c(CC=C(C)C)c4)c(=O)oc3c2C)OC1(C)C', '415267-285-R-J2-PDC complex spheroid viability', '< 3.16 nM'),
  ('CCc1cc2c(N3CCc4c(cc(Cn5ccnc5)cc4-c4cn(C)nc4C(F)(F)F)C3=O)ccnc2c(OC)n1 + Nc1ccc(C#CCN(C(=O)Cc2ncc(C(F)(F)F)cc2C(F)(F)F)c2ccc(F)cc2)nn1', '415267-285-R-J2-PDC complex spheroid viability', '> 10000 nM'),
  ('COc1cccc(OCCCN)c1-c1cc(Nc2cnc(C#N)cn2)n[nH]1 + COC1C(OC(N)=O)C(O)C(Oc2ccc3c(O)c(NC(=O)c4ccc(O)c(CC=C(C)C)c4)c(=O)oc3c2C)OC1(C)C', '415267-285-R-J2-PDC complex spheroid viability', '< 3.16 nM'),
  ('COc1cccc2c1C(=O)c1c(O)c3c(c(O)c1C2=O)CC(O)(C(=O)CO)CC3OC1CC(N)C(O)C(C)O1 (stereo unspecified) + Nc1ccc(C#CCN(C(=O)Cc2ncc(C(F)(F)F)cc2C(F)(F)F)c2ccc(F)cc2)nn1', '415267-285-R-J2-PDC complex spheroid viability', '57.9 nM'),
  ('COc1cc2cc(C(=O)CCC(=O)O)sc2cc1OC + COC1C(OC(N)=O)C(O)C(Oc2ccc3c(O)c(NC(=O)c4ccc(O)c(CC=C(C)C)c4)c(=O)oc3c2C)OC1(C)C', '415267-285-R-J2-PDC complex spheroid viability', '> 10000 nM'),
  ('COc1cccc2c1C(=O)c1c(O)c3c(c(O)c1C2=O)CC(O)(C(=O)CO)CC3OC1CC(N)C(O)C(C)O1 (stereo unspecified) + COC1C(OC(N)=O)C(O)C(Oc2ccc3c(O)c(NC(=O)c4ccc(O)c(CC=C(C)C)c4)c(=O)oc3c2C)OC1(C)C', '415267-285-R-J2-PDC complex spheroid viability', '35.2 nM'),
  ('CCc1cc2c(N3CCc4c(cc(Cn5ccnc5)cc4-c4cn(C)nc4C(F)(F)F)C3=O)cc(C)nc2c(OC)n1 + Nc1ccc(C#CCN(C(=O)Cc2ncc(C(F)(F)F)cc2C(F)(F)F)c2ccc(F)cc2)nn1', '415267-285-R-J2-PDC complex spheroid viability', '> 10000 nM');

====

Measured viability, T/C, listed per entry for reference.
# Test system: 415267-285-R-J2-PDC complex spheroid viability
# test.method.notes: Anticancer human tumor 415267-285-R-J2-PDC cell line growth inhibition [POLQ];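 further: spheroids exposed to compounds for one week before readout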;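 on viability, T/C: luminescence used as stand-in measure of viable cells; 100% = DMSO vehicle control viability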
# measurement.conditions: second compound 0.1 µM; first compound 0.0316 µM; stronger effect = lower value
experimental.readout: viability, T/C

INSERT INTO results (molecule, tested_target, value) VALUES
  ('Cn1ncnc1[C@H]1c2n[nH]c(=O)c3cc(F)cc(c23)N[C@@H]1c1ccc(F)cc1 + COC1C(OC(N)=O)C(O)C(Oc2ccc3c(O)c(NC(=O)c4ccc(O)c(CC=C(C)C)c4)c(=O)oc3c2C)OC1(C)C', '415267-285-R-J2-PDC complex spheroid viability', '97.8%'),
  ('CC(C)n1c(=O)n(C)c2cnc3cc(F)c(-c4ccc(OCCCN5CCCCC5)nc4)cc3c21 + Nc1ccc(C#CCN(C(=O)Cc2ncc(C(F)(F)F)cc2C(F)(F)F)c2ccc(F)cc2)nn1', '415267-285-R-J2-PDC complex spheroid viability', '103%'),
  ('CCc1c2c(nc3ccc(O)cc13)-c1cc3c(c(=O)n1C2)COC(=O)[C@]3(O)CC + COC1C(OC(N)=O)C(O)C(Oc2ccc3c(O)c(NC(=O)c4ccc(O)c(CC=C(C)C)c4)c(=O)oc3c2C)OC1(C)C', '415267-285-R-J2-PDC complex spheroid viability', '7.02%'),
  ('C=CC(=O)N1CCN(c2nc(=O)n(-c3c(C)ccnc3C(C)C)c3nc(-c4c(O)cccc4F)c(F)cc23)C(C)C1 (stereo not given) + Nc1ccc(C#CCN(C(=O)Cc2ncc(C(F)(F)F)cc2C(F)(F)F)c2ccc(F)cc2)nn1', '415267-285-R-J2-PDC complex spheroid viability', '98.5%'),
  ('C#Cc1c(F)ccc2cc(O)cc(-c3ncc4c(N5CC6CCC(C5)N6)nc(OCC56CCCN5CC(F)C6)nc4c3F)c12 (stereo not given) + Nc1ccc(C#CCN(C(=O)Cc2ncc(C(F)(F)F)cc2C(F)(F)F)c2ccc(F)cc2)nn1', '415267-285-R-J2-PDC complex spheroid viability', '100%');
